- Experiment Summary: IS-RPLC retention on silica-based C18 column, logkw by linear solvent strength model
- Assay type: physicochemical
- Protocol Conditions: pH 7
Decide using logkw-pH 7.0 alone. Strictly below 1: y. Equal to or above 1: n.

Use these answered entries as a reference point.
| Sample Smiles | Group Label |
| --- | --- |
| Cc1c[nH]cn1 | y |
| Cc1ccc(N)c(C)c1 | n |
| CCOc1ccc(N)cc1 | n |
| CN(C)c1ccccc1 | n |
| c1ccncc1 | y |
| COc1ccccc1N | n |
| Nc1ccccc1N | y |
| COc1ccc(N)cc1 | n |

*Q* logkw-pH 7.0 under 1? Item: `Cc1ccccc1N`
*A* n

*Q* Confirm or reject: logkw-pH 7.0 of `Cc1ccc(N)cc1` lies strictly below 1
*A* n

*Q* Here's an entry: `Nc1ccc([N+](=O)[O-])cc1Cl` . Is its logkw-pH 7.0 below 1?
*A* n

*Q* Does `CCN(CC)c1ccccc1` have logkw-pH 7.0 strictly under 1?
*A* n

*Q* Consider the molecule `Nc1ccc(N)cc1` . Is its logkw-pH 7.0 strictly less than 1?
*A* y

*Q* logkw-pH 7.0 strictly < 1 for this molecule? `c1ccc(-c2ccncc2)cc1`
*A* n

* * *

- Experiment Summary: IS-RPLC retention on silica-based C18 column, logkw by linear solvent strength model
- Format: physicochemical
- Protocol Conditions: pH 9
# logkw-pH 9.0 >= 2 gives 1.0, anything below gives 0.0

Check out these entries, answers already filled in.
| Sample Smiles | Group Label |
| --- | --- |
| Nc1ccc([N+](=O)[O-])cc1Cl | 1.0 |
| c1ccc(-c2ccncc2)cc1 | 1.0 |
| c1ccncc1 | 0.0 |
| CCN(CC)c1ccccc1 | 1.0 |
| CCOc1ccc(N)cc1 | 0.0 |

Here is the next item to consider.
*Q* Evaluate `Nc1ccc(N)cc1` : logkw-pH 9.0 at minimum 2?
*A* 0.0

* * *

- Protocol Conditions: pH 9
Measured Property: logDpH 9.0
Respond with the number and no other words.

*Q* // returns reported logDpH 9.0 for input `c1ccc(-c2ccncc2)cc1`
*A* 2.59

*Q* logDpH 9.0 lookup needed for `Cc1ccccc1N` , thanks.
*A* 1.40

*Q* Which logDpH 9.0 reading was recorded for the molecule `CCc1ccccc1N` ?
*A* 1.67

*Q* What logDpH 9.0 value was documented for this molecule, `Nc1ccc(Br)cc1` ?
*A* 1.74

*Q* Which logDpH 9.0 is reported for this molecule? `CCN(CC)c1ccccc1`
*A* 3.31

*Q* State the recorded logDpH 9.0 for this entry: `Cc1ccc(N)c(C)c1`
*A* 1.68

*Q* Which logDpH 9.0 is listed for `CCOc1ccc(N)cc1` ?
*A* 1.24

*Q* Suppose we examine the molecule `Nc1ccc(N)cc1` ; what logDpH 9.0 value has been reported?
*A* −0.30

*Q* What does the data say about its logDpH 9.0? Entry: `Cc1cc(C)nc(C)c1`
*A* 2.00

*Q* Endpoint output: logDpH 9.0 of `COc1ccccc1N` . Value?
*A* 0.95

*Q* I am curious: what logDpH 9.0 value has been reported for `Cc1ccc(N)cc1` ?
*A* 1.41

*Q* For the molecule shown here, `c1ccc(CNCc2ccccc2)cc1` , give the reported logDpH 9.0.
*A* 2.83

*Q* # input molecule: `Cc1ccccn1` ; wanted: its logDpH 9.0
*A* 1.09

*Q* Item `Cc1cccc(C)n1` has what recorded logDpH 9.0?
*A* 1.68

*Q* Record request: logDpH 9.0 value, item `Cc1ccncc1`
*A* 1.33

*Q* Quick one: logDpH 9.0 of `COc1ccc(N)cc1` ?
*A* 0.80
